TEST_DESCRIPTION: Half life in human microsomes assessed per mg protein
Format: ADME, Microsome
Catalogue of compounds with associated half-life
Only the number, expressed in min, is required.

The cases that follow already have their half-life on record.
O=C(O)C(F)(F)F.O=C(O)CCN1CCC2(CC1)COc1cc(OCc3ccccc3Cl)ccc12 : 153
Cl.O=C(O)CCN1CCC2(CC1)COc1cc(SCc3c(Cl)cccc3Cl)ccc12 : 65
Cl.O=C(O)CCN1CCC2(CC1)COc1cc(/C=C/c3c(Cl)cccc3Cl)ccc12 : 1820

Okay, next one:
Report half-life for `Cl.O=C(O)CCN1CCC2(CC1)COc1cc(OCc3cc(Cl)nc(Cl)c3)ccc12` please. 100

###

TEST_DESCRIPTION: Ratio of drug uptake in CNS to plasma in po dosed rat
Format: ADME, organism-based
MEASUREMENT_CONDITIONS: CNS and plasma
QUANTITY_KIND: Kp
Give the figure by itself; no unit, no explanation.

Cl.O=C(O)CCN1CCC2(CC1)COc1cc(OCc3c(Cl)cccc3Cl)ccc12 : 0.2

// returns reported Kp for input `Cl.O=C(O)CCN1CCC2(CC1)COc1cc(/C=C/c3c(Cl)cccc3Cl)ccc12` 0.8

###

Let's look at some molecules and their measured pEC50.
SYSTEM: Sphingosine 1-phosphate receptor 5 (Homo sapiens)
Sequence (Q9H228 whole entry): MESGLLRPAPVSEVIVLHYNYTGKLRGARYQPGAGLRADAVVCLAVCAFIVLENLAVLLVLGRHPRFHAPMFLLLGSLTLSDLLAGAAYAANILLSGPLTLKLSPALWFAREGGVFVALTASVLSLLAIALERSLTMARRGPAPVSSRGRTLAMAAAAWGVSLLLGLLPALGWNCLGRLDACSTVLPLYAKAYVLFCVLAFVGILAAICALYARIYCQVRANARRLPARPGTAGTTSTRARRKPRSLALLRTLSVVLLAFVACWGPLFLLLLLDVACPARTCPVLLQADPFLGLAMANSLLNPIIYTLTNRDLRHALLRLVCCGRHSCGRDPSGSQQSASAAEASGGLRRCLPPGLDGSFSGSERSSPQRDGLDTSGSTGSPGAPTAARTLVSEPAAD
TEST_DESCRIPTION: Agonist activity at human S1P5 receptor expressed in CHO cells assessed as increase in calcium flux by aequorin-derived luminescence assay
Give only the number. pEC50 is defined as minus log10 of concentration in molar units.

Examples from the recorded data:
CCCc1cccc(Cl)c1COc1ccc2c(c1)OCC21CCN(CCC(=O)O)CC1 : 7.80
CCc1cccc(Cl)c1COc1ccc2c(c1)OCC21CCN(CCC(=O)O)CC1 : 7.80
Cl.O=C(O)CCN1CCC2(CC1)COc1cc(OCc3c(F)cccc3Cl)ccc12 : 7.20
O=C(O)CCN1CCC2(CC1)COc1cc(OCc3cc(Cl)ccc3Cl)ccc12 : 6.70

Item: `O=C(O)C(F)(F)F.O=C(O)CCN1CCC2(CC1)COc1cc(OCc3ccccc3Cl)ccc12` Test system: Sphingosine 1-phosphate receptor 5 (Homo sapiens) Read-out: pEC50 Value: ? 6.90

Checklist item: pEC50 tested on Sphingosine 1-phosphate receptor 5 (Homo sapiens), entry `Cl.O=C(O)CCN1CCC2(CC1)COc1cc(OCc3cc(Cl)nc(Cl)c3)ccc12` , value? 6.50

Any idea what pEC50 came out for `O=C(O)CCN1CCC2(CC1)COc1cc(OCCCc3ccccc3)ccc12` on Sphingosine 1-phosphate receptor 5 (Homo sapiens)? 5.70

Short answer please: pEC50, Sphingosine 1-phosphate receptor 5 (Homo sapiens), entry Cl.O=C(O)CCN1CCCC2(COc3cc(OCc4c(Cl)cccc4Cl)ccc32)C1 (stereo unspecified) 7.00

Provide value of pEC50 for this record tested with Sphingosine 1-phosphate receptor 5 (Homo sapiens): CCc1cccc(Cl)c1COc1ccc2c(c1)OCC21CCCN(CCC(=O)O)C1.Cl (stereo unspecified) 7.50

Query pEC50 on Sphingosine 1-phosphate receptor 5 (Homo sapiens) for `O=C(O)CCN1CCC2(CC1)COc1cc(OCc3c(Cl)cccc3OC(F)(F)F)ccc12` 7.70

Request: pEC50, test system Sphingosine 1-phosphate receptor 5 (Homo sapiens), entry `Cl.O=C(O)CCN1CCC2(CC1)COc1cc(/C=C/c3c(Cl)cccc3Cl)ccc12` 7.90

Recall the recorded pEC50 for `O=C(O)CCN1CCC2(CC1)COc1cc(OCc3cccc(Cl)c3Cl)ccc12` with Sphingosine 1-phosphate receptor 5 (Homo sapiens) and state it. 6.70
